run description: Probe fluorescence ratio response to arachidonic acid relative to ADIFAB2
Assay type: binding
conditions: arachidonic acid; response relative to ADIFAB2

molecule	DR/DR AA
23W, 72A (protein, listed as Rattus norvegicus, PEPTIDE (1)...(131) wild-type rat intestinal fatty acid binding protein) AFDGTWKVDRNENYEKFMEKMGWNVVKRKLGAHDNLKLTITQEGNKFTVKESSNFRNIDVVFELGVDFAYSAADGTELTGTWTMEGNKLVGKFKRVDNGKELIAVREISGNELIQTYTYEGVEAKRIFKKE	0.618
